Tested on: HT-29
test: Cytotoxicity against human HT-29 cells assessed as reduction in cell viability after 72 hrs by MTT assay
Format: functional, cell-based
experimental context: HT-29, 72 h

>  <input smiles>
CN1[C@@H]2c3[nH]c4ccccc4c3C[C@H]1[C@H](C#N)N1[C@@H](CNC(=O)c3ccco3)c3[nH]c4ccccc4c3C[C@@H]21

>  <IC50 [nM]>
100

$$$$
>  <input smiles>
CN1[C@@H]2c3[nH]c4ccccc4c3C[C@H]1[C@H](C#N)N1[C@@H](CNC(=O)c3cc4ccccc4[nH]3)c3[nH]c4ccccc4c3C[C@@H]21

>  <IC50 [nM]>
1220

$$$$
>  <input smiles>
COc1ccc(C(=O)NC[C@H]2c3[nH]c4ccccc4c3C[C@H]3[C@H]4c5[nH]c6ccccc6c5C[C@@H]([C@H](C#N)N23)N4C)cc1

>  <IC50 [nM]>
840

$$$$
>  <input smiles>
CCc1ccc(C(=O)NC[C@H]2c3[nH]c4ccccc4c3C[C@H]3[C@H]4c5[nH]c6ccccc6c5C[C@@H]([C@H](C#N)N23)N4C)cc1

>  <IC50 [nM]>
3560

$$$$
>  <input smiles>
CC(=O)NC[C@H]1c2[nH]c3ccccc3c2C[C@H]2[C@H]3c4[nH]c5ccccc5c4C[C@@H]([C@H](C#N)N12)N3C

>  <IC50 [nM]>
1180

$$$$
>  <input smiles>
CN1[C@@H]2c3[nH]c4ccccc4c3C[C@H]1[C@H](C#N)N1[C@@H](CNC(=O)c3ccc(Cl)cc3)c3[nH]c4ccccc4c3C[C@@H]21

>  <IC50 [nM]>
130

$$$$
>  <input smiles>
CN1[C@@H]2c3[nH]c4ccccc4c3C[C@H]1[C@H](C#N)N1[C@@H](CNC(=O)c3cc4ccccc4o3)c3[nH]c4ccccc4c3C[C@@H]21

>  <IC50 [nM]>
850

$$$$
>  <input smiles>
CN1[C@@H]2c3[nH]c4ccccc4c3C[C@H]1[C@H](C#N)N1[C@@H](CNC(=O)c3ccccn3)c3[nH]c4ccccc4c3C[C@@H]21

>  <IC50 [nM]>
70

$$$$
>  <input smiles>
CN1[C@@H]2c3[nH]c4ccccc4c3C[C@H]1[C@H](C#N)N1[C@@H](CNC(=O)c3ccc4ccccc4c3)c3[nH]c4ccccc4c3C[C@@H]21

>  <IC50 [nM]>
4940

$$$$

###

Recorded pIC50 by entry
System: HCT-116
test: Cytotoxicity against human HCT116 cells assessed as reduction in cell viability after 72 hrs by MTT assay
Format: functional, cell-based
experimental context: HCT-116, 72 h
pIC50: −log10 of the molar value.
measured metric: pIC50

>  <input smiles>
CN1[C@@H]2c3[nH]c4ccccc4c3C[C@H]1[C@H](C#N)N1[C@@H](CNC(=O)c3ccc4ccccc4n3)c3[nH]c4ccccc4c3C[C@@H]21

>  <study system>
HCT-116

>  <test value>
6.62

$$$$
>  <input smiles>
CN1[C@@H]2c3[nH]c4ccccc4c3C[C@H]1[C@H](C#N)N1[C@@H](CNC(=O)c3cccc4c3CCCC4)c3[nH]c4ccccc4c3C[C@@H]21

>  <study system>
HCT-116

>  <test value>
5.38

$$$$
>  <input smiles>
CN1[C@@H]2c3[nH]c4ccccc4c3C[C@H]1[C@H](C#N)N1[C@@H](CNC(=O)/C=C/c3cccc(C(F)(F)F)c3)c3[nH]c4ccccc4c3C[C@@H]21

>  <study system>
HCT-116

>  <test value>
6.21

$$$$
>  <input smiles>
CN1[C@@H]2c3[nH]c4ccccc4c3C[C@H]1[C@H](C#N)N1[C@@H](CNC(=O)c3cccs3)c3[nH]c4ccccc4c3C[C@@H]21

>  <study system>
HCT-116

>  <test value>
6.26

$$$$
>  <input smiles>
CN1[C@@H]2c3[nH]c4ccccc4c3C[C@H]1[C@H](C#N)N1[C@@H](CNC(=O)/C=C/c3ccccc3)c3[nH]c4ccccc4c3C[C@@H]21

>  <study system>
HCT-116

>  <test value>
5.71

$$$$
>  <input smiles>
CN1[C@@H]2c3[nH]c4ccccc4c3C[C@H]1[C@H](C#N)N1[C@@H](CNC(=O)c3cc4ccccc4[nH]3)c3[nH]c4ccccc4c3C[C@@H]21

>  <study system>
HCT-116

>  <test value>
6.06

$$$$
>  <input smiles>
CN1[C@@H]2c3[nH]c4ccccc4c3C[C@H]1[C@H](C#N)N1[C@@H](CNC(=O)c3ccco3)c3[nH]c4ccccc4c3C[C@@H]21

>  <study system>
HCT-116

>  <test value>
6.77

$$$$
>  <input smiles>
CCc1ccc(C(=O)NC[C@H]2c3[nH]c4ccccc4c3C[C@H]3[C@H]4c5[nH]c6ccccc6c5C[C@@H]([C@H](C#N)N23)N4C)cc1

>  <study system>
HCT-116

>  <test value>
7.00

$$$$
>  <input smiles>
CN1[C@@H]2c3[nH]c4ccccc4c3C[C@H]1[C@H](C#N)N1[C@@H](CNC(=O)c3ccccc3)c3[nH]c4ccccc4c3C[C@@H]21

>  <study system>
HCT-116

>  <test value>
6.37

$$$$
>  <input smiles>
COc1ccc(/C=C/C(=O)NC[C@H]2c3[nH]c4ccccc4c3C[C@H]3[C@H]4c5[nH]c6ccccc6c5C[C@@H]([C@H](C#N)N23)N4C)cc1

>  <study system>
HCT-116

>  <test value>
5.30

$$$$
>  <input smiles>
CN1[C@@H]2c3[nH]c4ccccc4c3C[C@H]1[C@H](C#N)N1[C@@H](CNC(=O)c3ccc4ccccc4c3)c3[nH]c4ccccc4c3C[C@@H]21

>  <study system>
HCT-116

>  <test value>
6.38

$$$$
>  <input smiles>
CN1[C@@H]2c3[nH]c4ccccc4c3C[C@H]1[C@H](C#N)N1[C@@H](CNC(=O)c3ccc(F)cc3)c3[nH]c4ccccc4c3C[C@@H]21

>  <study system>
HCT-116

>  <test value>
6.85

$$$$
>  <input smiles>
CN1[C@@H]2c3[nH]c4ccccc4c3C[C@H]1[C@H](C#N)N1[C@@H](CN3C(=O)c4ccccc4C3=O)c3[nH]c4ccccc4c3C[C@@H]21

>  <study system>
HCT-116

>  <test value>
7.40

$$$$
>  <input smiles>
CN1[C@@H]2c3[nH]c4ccccc4c3C[C@H]1[C@H](C#N)N1[C@@H](CNC(=O)c3ccccn3)c3[nH]c4ccccc4c3C[C@@H]21

>  <study system>
HCT-116

>  <test value>
7.40

$$$$
>  <input smiles>
CN1[C@@H]2c3[nH]c4ccccc4c3C[C@H]1[C@H](C#N)N1[C@@H](CNC(=O)c3ccc(Cl)cc3)c3[nH]c4ccccc4c3C[C@@H]21

>  <study system>
HCT-116

>  <test value>
6.20

$$$$
>  <input smiles>
CN1[C@@H]2c3[nH]c4ccccc4c3C[C@H]1[C@H](C#N)N1[C@@H](CNC(=O)c3cccc(C(F)(F)F)c3)c3[nH]c4ccccc4c3C[C@@H]21

>  <study system>
HCT-116

>  <test value>
6.20

$$$$
>  <input smiles>
CN1[C@@H]2c3[nH]c4ccccc4c3C[C@H]1[C@H](C#N)N1[C@@H](CNC(=O)c3cc4ccccc4s3)c3[nH]c4ccccc4c3C[C@@H]21

>  <study system>
HCT-116

>  <test value>
6.30

$$$$
>  <input smiles>
COc1ccc(C(=O)NC[C@H]2c3[nH]c4ccccc4c3C[C@H]3[C@H]4c5[nH]c6ccccc6c5C[C@@H]([C@H](C#N)N23)N4C)cc1

>  <study system>
HCT-116

>  <test value>
6.37

$$$$
>  <input smiles>
CC(=O)NC[C@H]1c2[nH]c3ccccc3c2C[C@H]2[C@H]3c4[nH]c5ccccc5c4C[C@@H]([C@H](C#N)N12)N3C

>  <study system>
HCT-116

>  <test value>
5.36

$$$$
>  <input smiles>
CN1[C@@H]2c3[nH]c4ccccc4c3C[C@H]1[C@H](C#N)N1[C@@H](CNC(=O)c3cc4ccccc4o3)c3[nH]c4ccccc4c3C[C@@H]21

>  <study system>
HCT-116

>  <test value>
6.48

$$$$
